Values from patent US9890185B2

Test system: PBMCs
Test: LPS-induced IL-8 release in PBMC cells (assay b)
Type: cell-based, human
Details: Homo sapiens, PBMC; LPS-stimulated PBMCs; read-out: IC50 Values for Inhibition of Cytokine Release, PBMCs IL-8
Source text: Peripheral blood mononuclear cells (PBMCs) from healthy subjects are separated from whole blood using a density gradient (Lymphoprep, Axis-Shield Healthcare). […] The supernatant is harvested for determination of IL-8 and TNFα concentrations by sandwich ELISA (Duo-set, R&D systems) and read on the fluorescence microplate reader (Varioskan® Flash, ThermoFisher Scientific). […]
Readout Label: log10 IC50 (log10 of the value in nM)
Record value = log10 of IC50 given in nM.

Look over these answered cases.
COc1c(NC(=O)Nc2ccc(Oc3ccnc(Nc4cc(OCCN5CCOCC5)cc(C(F)(F)F)c4)c3)c3ccccc23)cc(C(C)(C)C)cc1[S+](C)[O-] (stereo not shown) [38(x)] | 0.61
COc1c(NC(=O)Nc2ccc(Oc3ccnc(Nc4cc(C#N)cc(OCCCN5CCOCC5)c4)c3)c3ccccc23)cc(C(C)(C)C)cc1[S+](C)[O-] (stereo not shown) [79(e)] | 0.61
COc1c(NC(=O)Nc2ccc(Oc3ccnc(Nc4ccc5c(c4)CS(=O)(=O)C5)n3)c3ccccc23)cc(C(C)(C)C)cc1P(C)(C)=O [15(y)] | -0.05
COc1cc(Nc2cc(Oc3ccc(NC(=O)Nc4cc(C(C)(C)C)cc(P(C)(C)=O)c4OC)c4ccccc34)ccn2)cc(S(=O)(=O)N(C)CCCN2CCOCC2)c1 [79(d)] | 0.59
COc1cc(Nc2cc(Oc3ccc(NC(=O)Nc4cc(C(C)(C)C)cc(CC(N)=O)c4OC)c4ccccc34)ccn2)ccn1 [38(k)] | 0.32

Known value: PBMCs log10 IC50 of the molecule COc1cccc(Nc2cc(Oc3ccc(NC(=O)Nc4cc(C(C)(C)C)cc(CC(=O)N5CCOCC5)c4OC)c4ccccc34)ccn2)c1 [38(j)] equals 1.10

Bench note, PBMCs: entry COc1cc(Nc2cc(Oc3ccc(NC(=O)Nc4cc(C(C)(C)C)cc(P(C)(C)=O)c4OC)c4ccccc34)ccn2)cc(C(=O)NCCN2CC[S+]([O-])CC2)c1 [38(am)] , its log10 IC50 = 0.79

* * *

target: p38 MAPKα isoform (MAPK14) (Homo sapiens (Human), UniProt Q16539); experiment: p38 MAPKα enzyme inhibition (FRET, Z-LYTE, Method 2)
Sequence (Q16539 whole entry, canonical isoform): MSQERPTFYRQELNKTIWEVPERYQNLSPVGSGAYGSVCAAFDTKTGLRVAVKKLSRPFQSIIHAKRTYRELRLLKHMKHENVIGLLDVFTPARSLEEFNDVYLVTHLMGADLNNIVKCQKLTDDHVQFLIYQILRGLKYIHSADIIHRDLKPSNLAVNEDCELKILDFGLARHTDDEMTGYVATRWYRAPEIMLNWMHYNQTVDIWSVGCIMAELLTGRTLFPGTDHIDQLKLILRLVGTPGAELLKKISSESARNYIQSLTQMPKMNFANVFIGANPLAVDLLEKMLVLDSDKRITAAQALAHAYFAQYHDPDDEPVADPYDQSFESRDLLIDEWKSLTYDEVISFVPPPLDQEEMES
Each record is given MET if its reported IC50 is strictly below 30 nM. Records at or above 30 nM are given NOT MET.

COc1cc(CO)cc(Nc2cc(Oc3ccc(NC(=O)Nc4cc(C(C)(C)C)cc(P(C)(C)=O)c4OC)c4ccccc34)ccn2)c1 [38(c)] | MET
COc1cc(Nc2cc(Oc3ccc(NC(=O)Nc4cc(C(C)(C)C)cc(C(=O)NCCN5CC[S+]([O-])CC5)c4OC)c4ccccc34)ccn2)cc(OC)c1 [Example 64] | NOT MET

### Prompt Confirm or reject: IC50 of COc1c(NC(=O)Nc2ccc(Oc3ccnc(NCc4ccccn4)n3)c3ccccc23)cc(C(C)(C)C)cc1P(C)(C)=O [Example 32] lies strictly below 30 nM
### Response MET

### Prompt IC50 under 30 nM? Item: COc1c(NC(=O)Nc2ccc(Oc3ccnc(Nc4ccccc4)c3)c3ccccc23)cc(C(C)(C)C)cc1C(=O)NCCN1CCC1 [38(a)]
### Response NOT MET

### Prompt IC50 under 30 nM? Item: COc1cc(Nc2cc(Oc3ccc(NC(=O)Nc4cc(C(C)(C)C)cc(S(C)(=O)=O)c4OC)c4ccccc34)ccn2)cc(C(=O)NCCN2CC[S+]([O-])CC2)c1 [38(an)]
### Response NOT MET
